# Tested on: UACC-257 melanoma
# test name: NCI tumour cell line growth inhibition, 48 h; in the data active = GI50 below about 0.43 µM; inactive = the rest
Assign a class; possible classes are Yes (active), No (inactive)

### Prompt Please let me know the test result on file for Nc1ccc(-c2ccc(-c3nc4ccccc4[nH]3)cc2)cc1 .
### Response No

### Prompt Could you kindly confirm the outcome this assay logged for O=C=Nc1ccc(Cc2ccc(N=C=O)cc2)cc1 (tested in a mixture with another compound) ?
### Response No

### Prompt Hi team, can someone confirm the assay call for NC1=C(c2nc(-c3cc4ccccc4oc3=O)cs2)C(c2ccco2)c2c(c3ccccc3oc2=O)O1 (centres undefined) ?
### Response No

### Prompt Could you check what this test reported for COc1cc(/C=C2\C(=O)N(c3c(Cl)cccc3Cl)c3ccccc32)cc(OC)c1O ?
### Response No

### Prompt Could you please tell me the result logged for COc1cc2cc(C(=O)O)[nH]c2cc1OCc1ccccc1 in this assay?
### Response No

### Prompt For Nc1cc(C(F)F)c(-c2nc(N3[C@@H]4CC[C@H]3COC4)nc(N3[C@@H]4CC[C@H]3COC4)n2)cn1 , what call appears in the results of this test?
### Response Yes

### Prompt Fill in: this test's call for C[C@]12CC[C@@H]3c4ccc(O)cc4CC[C@H]3[C@@H]1CC[C@@H]2NS(=O)(=O)c1cccc(Br)c1 is ___
### Response No

### Prompt Returns: the outcome recorded for O=C1C(Nc2ccccn2)=C(I)C(=O)c2ncccc21 in this assay.
### Response No

Now let's try a different one.
### Prompt Identify the outcome logged in this assay for the molecule shown: O=C(N/N=C/c1cc2ccccc2c2ccccc12)c1cc(O)c(O)c(O)c1
### Response No

* * *

# Tested on: KM12 colon
# test name: NCI tumour cell line growth inhibition, 48 h; in the data active = GI50 below about 0.43 µM; inactive = the rest
Choose one outcome from this list and give only that: active, inactive

### Prompt Hi, sorry to bother you, what did the test record for COc1ccc2[nH]cc(/C=C3\C(=O)Nc4ccccc43)c2c1 ?
### Response active

### Prompt Just curious, what result did N#Cc1cccc(Nc2nccc(-c3cnn4ncccc34)n2)c1 get here?
### Response active

### Prompt Kindly provide the recorded test outcome for the following compound: Cc1ccc(NC2=C(Cl)C(=O)c3nc(C)ccc3C2=O)cc1
### Response inactive

### Prompt Recorded call for O=C1c2cccc3c(N4CCN(c5ccc6c7c(cccc57)C(=O)N(CCN5CCNCC5)C6=O)CC4)ccc(c23)C(=O)N1CCN1CCNCC1 ?
### Response inactive

***
### Prompt Which outcome was entered for the compound O=[N+]([O-])c1ccc(N(CCO)CCO)c2c1no[n+]2[O-] in this test?
### Response inactive

### Prompt // outcome(item) with item = O=[N+]([O-])c1ccc2nc(N/N=C/c3ccc(O)cc3)sc2c1
### Response inactive

### Prompt Please share the test call associated with N#CC1=C(N)Oc2c(sc3c(F)cccc23)C1c1ccc([N+](=O)[O-])cc1 (stereo not given) .
### Response active

### Prompt Assay outcome for COC(=O)/C(=C/N1CCN(C(=O)c2ccco2)C1=S)C(C)=O : what was it?
### Response inactive

### Prompt What did the test return for CCN(C)S(=O)(=O)Nc1cccc(Nc2ncnc3cc(NC(=O)CCl)ccc23)c1Cl ?
### Response inactive

### Prompt Any idea what this test logged for NC(N)=NC(N)=NCCc1ccccc1 ?
### Response inactive

* * *

# Test system: SW-620 colon
# test name: NCI tumour cell line growth inhibition, 48 h
Give measured TGI for each item. Keep answers brief.

Example cases with answers are listed next.
In plain terms, O=C1c2cccc3c(N4CCN(c5ccc6c7c(cccc57)C(=O)N(CCN5CCNCC5)C6=O)CC4)ccc(c23)C(=O)N1CCN1CCNCC1 has a documented TGI of 77.7 µM

CCNC1CC(C(C)(C)NCC)CC=C1C (stereo not drawn) has a reported TGI of > 100 µM

# molecule CC(C)(C)OC(=O)C1/C(=C/CO)CN1C(=O)OC(C)(C)C (stereo not drawn) ; its TGI = > 100 µM

Please go through the list and note TGI for each molecule.
1. O=C(O)C1Cc2nc[nH]c2CN1 (stereo not drawn)
2. COc1cc2c(cc1OC)-c1c(cc(OC)c(OC)c1OC)C2=O
3. N#Cc1ccc(-n2cnc(NC(=O)[C@H]3CCN(C#N)C3)c2)cc1
4. CCC(=S)N(C)O
5. CC1C(c2ccccc2O)c2cc3c(cc2OC1N1CCCC1)OCO3 (stereo not drawn)
6. CN(C)CCCC1(c2ccc(F)cc2)OCc2cc(-c3ccc4cc[nH]c4c3)ccc21 (stereo not drawn)
7. CSC(=S)NN=C1CCCCC1
8. COc1cc(/C=C2\C(=O)N(c3c(Cl)cccc3Cl)c3ccccc32)cc(OC)c1O

### Response
1. > 100 µM
2. > 100 µM
3. 26.4 µM
4. > 100 µM
5. 44.4 µM
6. 3.64 µM
7. > 100 µM
8. 16.2 µM

Quick one: give me TGI for each item below, same order please.
1. CC(C)NC(C)Cc1ccccc1 (stereo not drawn)
2. O=C1C(Nc2ccccn2)=C(I)C(=O)c2ncccc21
3. C[C@H](CCc1nc(C#N)c(N)o1)[C@H]1CC[C@H]2[C@@H]3[C@@H](O)CC4C[C@@H](O)CC[C@]4(C)[C@H]3C[C@@H](O)[C@]12C (stereo partly drawn)
4. COC1OC(C)C(OC(=O)C(C)(C)C)C(C)(O)C1O (stereo not drawn)

### Response
1. > 100 µM
2. 1.63 µM
3. 55 µM
4. > 100 µM

* * *

# Tested on: A498 renal
# test name: NCI tumour cell line growth inhibition, 48 h
I'd be grateful if you could share measured TGI for these entries.
Give bare numbers, in µM.

Briefly, TGI measured for CCN(CC)CC(C)(C)C(=O)/C=C/c1ccc(C)cc1 : 15.5

Provide TGI values for the following items, in order.
1. O=C1C(Nc2ccccn2)=C(I)C(=O)c2ncccc21
2. COC(=O)c1c2c(c(C)[n+]([O-])c1C)C(=O)C(NCc1ccc(F)c(Cl)c1)=CC2=O
3. CCC12C=CCN3CC[C@]4(C(=C(C(=O)OC)[C@@H]1Nc1ccn(C5OC(COC(C)=O)C(OC(C)=O)C5OC(C)=O)c(=O)n1)Nc1ccccc14)C32 (some centres undefined)
4. C=C1CC2(OC1=O)c1ccccc1CCc1ccccc12
5. O=S(=O)(Nc1ccc(Cl)c(C(F)(F)F)c1)c1ccc(-c2cnc(C3CC3)o2)cc1

### Response
2.74
3.68
10.7
41.2
1.23

* * *

# System: MOLT-4 leukemia
# test name: NCI tumour cell line growth inhibition, 48 h
For each record, write down the corresponding TGI.

So, COc1ccc(OC)c(-c2nc3sccn3c2/C=C2/C(=O)Nc3ccccc32)c1 ? Its TGI was 18.4 µM

Could you report TGI for every entry in the following list?
1. CS(=O)(=O)C(=Cc1ccccc1Cl)S(C)(=O)=O
2. Oc1cccc(C2SCc3nc4ccccc4n32)c1 (stereo unspecified)
3. CCC(C)(C)NC1=C(NC(C)=O)C(=O)c2ccccc2C1=O
4. CNC(=O)OCc1nc(S(C)=O)n(C)c1COC(=O)NC (stereo unspecified)
5. Cc1ccc2c(c1)NC(=O)C(N=[N+]=[N-])(c1ccccc1)C2=O (stereo unspecified)
6. CC(O[Si](C)(C)C(C)(C)C)[C@H](NC(=O)OCC(Cl)(Cl)Cl)C(=O)O (stereo partly specified)

### Response
1: > 100 µM; 2: > 100 µM; 3: 31.6 µM; 4: > 100 µM; 5: 71.5 µM; 6: > 100 µM

* * *

# Test system: PC-3 prostate
# test name: NCI tumour cell line growth inhibition, 48 h
Kindly supply the reported GI50 values for the records listed here.

Answered cases to consult:
For reference, reported GI50 for O=C1Nc2ccccc2SC1C1SC(=S)N(Cc2ccccc2)C1=O (stereo not drawn) stands at 5.74 µM

Notebook: COc1cc(/C=C2\C(=O)N(c3c(Cl)cccc3Cl)c3ccccc32)cc(OC)c1O , GI50 read as 1.44 µM

Shift focus to the following entry.
For this compound ( Cc1ccnc2c1NC(=O)c1cccnc1N2C1CC1 ), measured GI50 is > 100 µM

* * *

# Tested on: SK-MEL-5 melanoma
# test name: NCI tumour cell line growth inhibition, 48 h
Provide the reported GI50 of each item.

Please fill in: GI50 reported for C=CC(=O)Nc1cc2c(Nc3ccc(OCc4ccccn4)c(Cl)c3)ncnc2cc1OCCN1CCOCC1 = 3800 nM

Record summary for Clc1ccc2c(NCCNc3nc(-c4ccccc4)cc(-c4ccccc4)n3)ccnc2c1 : reported GI50 = 1790 nM

The measured GI50 associated with CS(=O)(=O)c1ccc(C(F)(F)F)cc1NC(=O)Nc1cnc(Oc2ccc(-c3cc(Cl)cnc3N)cc2)nc1 reads 1870 nM

Notebook: Nc1cc(C(F)F)c(-c2nc(N3[C@@H]4CC[C@H]3COC4)nc(N3[C@@H]4CC[C@H]3COC4)n2)cn1 , GI50 read as 407 nM

// field: GI50; key: O=C=Nc1ccc(Cc2ccc(N=C=O)cc2)cc1 (tested in a mixture with another compound) ; value = > 25 µg/mL

The reported GI50 of the molecule COC(=O)c1c2c(c(C)[n+]([O-])c1C)C(=O)C(NCc1ccc(F)c(Cl)c1)=CC2=O was 426 nM

Quick batch: GI50 for everything below.
1. C[C@]12CC[C@H]3[C@@H](C[C@@H]4SC(Nc5cccc(F)c5)=N[C@@]45CC(=O)CC[C@]35C)[C@@H]1CCC2=O
2. C=CCSc1n[nH]c(-c2cccs2)n1
3. CCOC(=O)C(=Cc1ccc(Br)cc1)C(=O)OCC

### Response
2020 nM
> 100000 nM
1650 nM
